# Run Description: self-splicing fitness, log relative to wild type (ln ratio); higher = more splicing; Tetrahymena group I intron in knt gene, E. coli kanamycin selection, DiMSum; sequences stand for … in CUCUCU…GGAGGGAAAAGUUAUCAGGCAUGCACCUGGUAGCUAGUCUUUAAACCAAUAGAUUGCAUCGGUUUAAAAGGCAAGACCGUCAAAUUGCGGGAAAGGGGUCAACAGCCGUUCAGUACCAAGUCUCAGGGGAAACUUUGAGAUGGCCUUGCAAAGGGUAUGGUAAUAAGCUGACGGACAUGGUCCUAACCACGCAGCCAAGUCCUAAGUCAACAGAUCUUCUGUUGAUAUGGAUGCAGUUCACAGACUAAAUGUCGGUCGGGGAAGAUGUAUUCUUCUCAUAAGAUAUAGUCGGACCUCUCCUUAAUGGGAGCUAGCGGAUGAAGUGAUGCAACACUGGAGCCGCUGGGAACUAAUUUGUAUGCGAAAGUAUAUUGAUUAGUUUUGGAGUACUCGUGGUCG;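 also: selection with 25 µg/mL kanamycin versus none on LB agar overnight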
# Stated Conditions: 30 °C
Property Measured: self-splicing fitness (ln)

seq_text=GGUGAGCAAUAUUACGACAG readout_value=-3.05
seq_text=GGGAAGCAAUAUUACGUACG readout_value=-0.982
seq_text=UUGAAGCAAUAUUACGUGCU readout_value=-3.06
seq_text=CAGUAGCAAUAUUACGUAGA readout_value=-3.03
seq_text=GUGCAGCAAUAUUACGCCUG readout_value=-2.95
seq_text=AUUAAGCAAUAUUACGGGAG readout_value=-3.06
